Target: human DGKα (Homo sapiens, UniProt P23743)
Construct: TVMV protease cleavage site (C); Hexa-His (C); made in house; host or cells: Sf9 insect cells (baculovirus, Bac-to-Bac)
Sequence (P23743 with tags, fused parts or gaps): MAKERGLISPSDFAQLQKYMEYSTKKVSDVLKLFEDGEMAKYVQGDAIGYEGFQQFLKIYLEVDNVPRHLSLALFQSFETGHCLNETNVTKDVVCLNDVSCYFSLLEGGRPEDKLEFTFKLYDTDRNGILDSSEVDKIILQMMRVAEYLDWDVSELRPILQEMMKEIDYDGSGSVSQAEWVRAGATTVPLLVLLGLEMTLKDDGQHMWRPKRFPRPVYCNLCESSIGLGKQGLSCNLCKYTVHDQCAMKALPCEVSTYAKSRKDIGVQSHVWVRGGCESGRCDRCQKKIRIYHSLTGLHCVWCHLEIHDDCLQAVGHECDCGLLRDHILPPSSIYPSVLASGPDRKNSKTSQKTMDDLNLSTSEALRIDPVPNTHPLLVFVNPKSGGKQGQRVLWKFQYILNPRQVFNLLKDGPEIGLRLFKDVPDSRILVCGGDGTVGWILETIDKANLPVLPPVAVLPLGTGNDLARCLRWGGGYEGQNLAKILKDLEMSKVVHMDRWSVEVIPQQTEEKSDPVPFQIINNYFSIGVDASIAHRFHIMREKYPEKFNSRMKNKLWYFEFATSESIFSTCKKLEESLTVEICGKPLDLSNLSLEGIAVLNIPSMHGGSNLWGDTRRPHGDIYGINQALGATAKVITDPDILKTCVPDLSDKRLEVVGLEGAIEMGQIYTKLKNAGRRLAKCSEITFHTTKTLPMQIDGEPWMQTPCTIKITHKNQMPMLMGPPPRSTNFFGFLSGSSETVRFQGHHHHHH
Experiment: DGKα LIPGLO assay (extruded liposome substrate), in vitro DGK inhibition
Type: biochemical
Conditions: liposome (LIPGLO) assay; read-out: DGKa LIPGLO IC50
pIC50: −log10 of the molar value.
Hi all, reminder that labels come from pIC50, split as Low (below 5), Mid (5 to below 6), High (6 or more)

Inquiry: Pick a category. Item: COc1ccc(C(C)N2C[C@H](C)N(c3cc(=O)n(C)c4ccc(C#N)nc34)C[C@H]2C)cc1C(F)(F)F (some centres unmarked) [Example 1249]
Reply text: Low

----------
I'd appreciate it if you could supply IC50 values for the items below.
Target: human DGKζ (Homo sapiens)
Construct: TVMV protease cleavage site (C); Hexa-His (C); made in house; host or cells: Sf9 insect cells (baculovirus, Bac-to-Bac)
Assay: DGKζ LIPGLO assay (extruded liposome substrate), in vitro DGK inhibition
Format: biochemical
Settings: liposome (LIPGLO) assay; read-out: DGKz LIPGLO IC50
Give bare numbers, in nM.

{"columns": ["COMPOUND", "TESTED SYSTEM", "UNIT INFO", "IC50"],
 "data": [
  ["Cc1ccc(C(c2ccc(C)cc2)N2C[C@H](C)N(c3cc(=O)n(C)c4ccc(C#N)nc34)C[C@H]2CO)cc1 [Example 1150]", "human DGKζ (Homo sapiens)", "nM", 18000],
  ["CC(c1ccc(F)cc1)N1C[C@@H](C)N(c2cc(=O)n(C)c3ccc(C#N)nc23)C[C@@H]1CO (single isomer, unassigned) [Example 1179]", "human DGKζ (Homo sapiens)", "nM", 850]
]}

Inquiry: What IC50 value was documented for this compound, C[C@@H]1CN(c2cc(=O)n(C)c3ccc(C#N)nc23)[C@@H](C)CN1C(c1ccc(F)cc1)c1ccnc(C(C)(C)C)n1 (single isomer, unassigned) [Example 409] ?
Reply text: 53

----------
Biological target: human DGKζ (Homo sapiens, UniProt Q13574)
Construct: TVMV protease cleavage site (C); Hexa-His (C); made in house; host or cells: Sf9 insect cells (baculovirus, Bac-to-Bac)
Sequence (Q13574 with tags, fused parts or gaps isoform Q13574-4): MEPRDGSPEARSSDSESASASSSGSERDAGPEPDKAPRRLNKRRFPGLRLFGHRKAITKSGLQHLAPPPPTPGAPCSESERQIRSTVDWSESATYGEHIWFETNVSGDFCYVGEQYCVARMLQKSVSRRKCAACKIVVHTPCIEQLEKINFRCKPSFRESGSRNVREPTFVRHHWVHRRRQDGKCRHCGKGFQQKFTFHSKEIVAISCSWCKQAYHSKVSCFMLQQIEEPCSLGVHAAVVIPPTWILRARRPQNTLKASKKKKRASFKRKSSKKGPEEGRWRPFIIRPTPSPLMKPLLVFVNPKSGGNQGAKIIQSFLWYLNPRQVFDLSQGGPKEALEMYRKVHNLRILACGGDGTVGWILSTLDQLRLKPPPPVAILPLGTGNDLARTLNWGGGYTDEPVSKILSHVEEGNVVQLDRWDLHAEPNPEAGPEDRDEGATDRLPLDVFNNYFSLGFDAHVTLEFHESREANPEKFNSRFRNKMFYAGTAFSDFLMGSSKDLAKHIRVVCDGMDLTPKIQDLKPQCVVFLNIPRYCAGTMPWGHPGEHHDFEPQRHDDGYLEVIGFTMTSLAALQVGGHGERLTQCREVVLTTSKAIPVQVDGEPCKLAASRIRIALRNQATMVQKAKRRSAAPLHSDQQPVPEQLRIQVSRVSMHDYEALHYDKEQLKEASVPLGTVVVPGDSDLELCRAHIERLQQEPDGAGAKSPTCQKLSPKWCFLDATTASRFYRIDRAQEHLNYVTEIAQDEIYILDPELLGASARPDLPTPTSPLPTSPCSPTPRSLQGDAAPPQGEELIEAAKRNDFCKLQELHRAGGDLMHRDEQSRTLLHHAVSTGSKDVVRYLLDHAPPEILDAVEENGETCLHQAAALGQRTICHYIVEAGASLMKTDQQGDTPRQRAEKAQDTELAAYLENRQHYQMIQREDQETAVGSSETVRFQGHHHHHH
Assay: DGKζ LIPGLO assay (extruded liposome substrate), in vitro DGK inhibition
Type: biochemical
Conditions: liposome (LIPGLO) assay; read-out: DGKz LIPGLO IC50
READOUT LABEL: pIC50
Answers are plain numbers, as −log10 of the molar value.

Some molecules with known pIC50 results, for comparison:
{"columns": ["MOLECULE", "pIC50"],
 "data": [
  ["CCOc1cc(F)ccc1C(c1ccc(F)cc1)N1C[C@H](C)N(c2cc(=O)n(C)c3ccc(C#N)nc23)C[C@H]1C (single isomer, unassigned) [Example 229]", 6.35],
  ["CC[C@H]1CN(Cc2cc(F)c(F)c(F)c2)[C@H](C)CN1c1cc(=O)n(C)c2ccc(C#N)nc12", 5.46]
]}

Hey, can you go through the list below and give me pIC50 for every item?
1. CC(c1ccc(F)c(C#N)c1)N1C[C@H](C)N(c2cc(=O)n(C)c3ccc(C#N)nc23)C[C@H]1C (stereo partly shown)
2. Cn1c(=O)cc(N2CCN(C(c3ccc(F)cc3)c3ccc(F)cc3)CC2C(=O)NC2CC2)c2nc(C#N)ccc21 (single isomer, unassigned) [Example 139]
3. C[C@@H]1CN(c2c(C#N)c(=O)n(C)c3ccc(C#N)nc23)CCN1C(c1ccc(F)cc1)c1cnsc1 (stereo partly shown)
4. CC[C@H]1CN(C(C)c2ccc(C(F)(F)F)cc2)[C@H](C)CN1c1cc(=O)n(C)c2ccc(C#N)nc12 (single isomer, unassigned) [Example 1144]
5. C[C@@H]1CN(c2cc(=O)n(C)c3ccc(C#N)nc23)[C@@H](C)CN1C(c1ccc(F)cc1)c1cccc2c1OC(F)(F)O2 (stereo partly shown) [Example 669]

Reply text:
1. 5.89
2. 3.96
3. 5.15
4. 5.82
5. 5.32
